Provide the recorded pIC50 for the entries that follow.
Test system: P. falciparum 3D7 growth, pLDH absorbance
Test: blood-stage malaria parasite growth potency – strain 3D7, dose response (AID 2305)
One number for each entry, as −log10 of the molar value.

| Smi | Experimental System | Value Kind | Numeric Value |
| --- | --- | --- | --- |
| COc1ccc(NC(=O)Nc2cccc(-c3cccc(-c4nc5ccc(F)cc5[nH]4)c3)c2)cc1 | P. falciparum 3D7 growth, pLDH absorbance | pIC50 | 6.77 |
| CCN(CC)CCOc1ccc(NC(=O)c2oc3ccccc3c2C=Cc2ccccc2)cc1 | P. falciparum 3D7 growth, pLDH absorbance | pIC50 | 6.66 |
| COc1cc(CCN=C(N)/C=C/c2ccc(Cl)cc2)ccc1Cl | P. falciparum 3D7 growth, pLDH absorbance | pIC50 | 6.62 |

Could you report pIC50 for every entry in the following list?
1. N=C(N)CCN(Cc1ccc(Cl)cc1)c1ccc(Cl)cc1
2. CCC[C@@H]([C@@H](CC(C)C)C(=O)N[C@@H](CCCCNC(=O)c1cccc(OC)c1)C(=O)Nc1nccs1)N(O)C=O

output:
1. 5.97
2. 7.00

* * *

System: P. falciparum 3D7 growth, pLDH absorbance
Assay: blood-stage malaria parasite growth potency – strain 3D7, dose response (AID 2305)
Provide the recorded log10 of IC50 for the entries that follow.
Values below are the log10 of the recorded IC50, with nM as the unit.

Some entries whose results are on file:
| Compound | log10 of IC50 |
| --- | --- |
| COc1ccc(NC(=O)N2CCN(CCCCCNC(=O)/C=C/c3ccc(C(F)(F)F)cc3)CC2)cc1Cl | 2.93 |
| COc1ccc(Cc2cccc(C(C(=O)NCc3cc(Cl)cc(Cl)c3)N3CCN(C)CC3)c2)cc1 (stereo not given) | 2.84 |

Could you report log10 of IC50 for every entry in the following list?
1. Fc1c(CNCC2CCN(CC3CCCCC3)CC2)cccc1C(F)(F)F
2. Cc1ccc(F)c(OCC2CCN(c3ccc(C(=O)NC4CC4)cn3)CC2)c1
3. CCOc1ccc(-c2nonc2NC(=O)c2cccs2)cc1OCC
4. CCOCc1cn(CC(=O)c2ccc(-c3ccccc3)cc2)c(C)nc1=N
5. CC(C)(C)C(=O)Nc1ccccc1Oc1ccc(Cl)cc1
6. C=CCn1c(Sc2ccc(C#N)c([N+](=O)[O-])c2)nnc1-c1cccc(Cl)c1
7. CS(=O)(=O)c1ccc(CNCc2ccc(-c3cccc(-c4nc5ccc(C(F)(F)F)cc5[nH]4)c3)cc2)cc1

output:
2.95
2.86
2.88
2.51
1.00
2.48
2.15

Note to self: log10 of IC50 recorded for C=Cc1ccccc1C1(O)CCN(CCCCNC(=O)c2ccc(-c3ccc(C#N)cc3)cc2)CC1 was 2.72

* * *

Provide the recorded IC50 for the entries that follow.
System: P. falciparum 3D7 growth, pLDH absorbance
Assay: blood-stage malaria parasite growth potency – strain 3D7, dose response (AID 2305)
Numbers only, in nM.

Some entries whose results are on file:
| Compound | Experimental System | Unit Of Measurement | Numeric Value |
| --- | --- | --- | --- |
| CNC(=O)c1cnc(Nc2ccc(OCC(O)CN(C)C)cc2)nc1Nc1cccc(OC(C)C)c1 (centres undefined) | P. falciparum 3D7 growth, pLDH absorbance | nM | 140 |
| CC(C)(C)c1ccc(C(=O)Nc2ccc3nc4c(c(N)c3c2)CCCC4)cc1 | P. falciparum 3D7 growth, pLDH absorbance | nM | 170 |

Could you report IC50 for every entry in the following list?
1. Cc1[nH]cc(Br)c(=O)c1-c1ccc(Oc2ccc(OC(F)(F)F)cc2)cc1
2. Cc1[nH]c2ccc(-c3ccc(OC(F)(F)F)cc3)cc2c(=O)c1C#N
3. O=C(NC1CCCCC1)c1csc(C2CCCN(C(=O)c3ccc(O)c(-c4cccc(C(F)(F)F)c4)c3)C2)n1 (centres undefined)
4. CCCCN1CCN(Cc2cccc(NC(=O)c3ccc(Cl)c(Cl)c3)c2)CC1
5. COc1ccc2nccc(NCC3(O)CCC(NCc4ccc5c(n4)NC(=O)CS5)CC3)c2n1 (centres undefined)

output:
1. 330
2. 20
3. 1670
4. 1160
5. 690

Could you report IC50 for every entry in the following list?
1. O=C(/C=C/c1ccc(Cl)c(Cl)c1)N1CCC(C(O)CN2CCC(c3c[nH]c4ccccc34)CC2)CC1 (centres undefined)
2. Nc1c(Cl)cc(C(O)CNCCCCCCOCCC=C2CCOCC2)cc1Cl (centres undefined)

output:
1: 860; 2: 630

Could you report IC50 for every entry in the following list?
1. CN1CCN(c2cccc(Nc3nccc(NCC(O)c4ccccc4)n3)c2)CC1 (centres undefined)
2. O=C(/C=C/c1ccc(Cl)c(Cl)c1)NCCCCCN1CCCC(CNS(=O)(=O)c2cccc(C(F)(F)F)c2)C1 (centres undefined)
3. COC(=O)c1ccc(CC(C)NCC(O)c2cccc(SC(F)(F)F)c2)cc1 (centres undefined)

output:
720
950
890

Could you report IC50 for every entry in the following list?
1. COc1ccc(-c2nc3cccnc3n2CC(=O)Nc2cc(Cl)c(Cl)cc2Cl)c(OC)c1
2. COC(=O)c1ccc(CC(C)NCC(O)c2cccc(Cl)c2Cl)cc1 (centres undefined)
3. FC(F)(F)c1ccc2nc(-c3cccc(-c4cccc(CNCCN5CCNCC5)c4)c3)[nH]c2c1

output:
1. 720
2. 550
3. 940

Could you report IC50 for every entry in the following list?
1. c1ccc(C2CCC(N3CCC(N4CCCC4)CC3)CC2)cc1 (centres undefined)
2. O=C(Nc1ccccc1)N(Cc1ccccc1-c1cccc(CNCCc2ccccc2)c1)C1CCN(Cc2ccccc2)CC1
3. O=S(=O)(c1c(Cl)cc(Cl)cc1Cl)N1CCCCC(c2ccc(F)c(F)c2)=N1
4. O=C(CC1NC(=O)c2ccccc21)Nc1ccc(-c2ccc(-c3nc4ccc(C(F)(F)F)cc4[nH]3)cc2)cc1 (centres undefined)

output:
[670, 180, 590, 470]

* * *

Tested on: P. falciparum 3D7 growth, pLDH absorbance
Experiment: blood-stage malaria parasite growth potency – strain 3D7, dose response (AID 2305)
# if measured IC50 < 0.7 µM: Condition met  # else: Condition not met

Examples with answers:
| Compound | Label Class |
| --- | --- |
| O=C(O)c1ccc(OCOCOc2ccc(C(=O)O)c(O)c2)cc1O | Condition met |
| COc1ccc(Oc2cnc(N)nc2N)c(C(C)C)c1 | Condition not met |
| CC1CCc2c(C(=O)Nc3c(F)cc(F)cc3Br)csc2C1 (stereo not given) | Condition not met |

input: Is IC50 of COc1cc2c(cc1O)[C@@H]1[C@H](O)[C@@H](O)C=C3CCN(C2)[C@H]31 strictly below 0.7 µM?
output: Condition not met

input: Is IC50 of COc1ccc(CN(C)C(=O)CCNS(=O)(=O)c2ccc3c(c2)OCCCO3)cc1F strictly below 0.7 µM?
output: Condition met

input: Is IC50 of Cc1cc(NCCC(=O)Nc2ccccc2)nc(NCCc2ccccc2)n1 strictly below 0.7 µM?
output: Condition not met

input: Is IC50 of Fc1ccc2nc(-c3ccc(-c4ccc(CN5CCC(CCN6CCCCC6)CC5)cc4)cc3)[nH]c2c1 strictly below 0.7 µM?
output: Condition met

input: Is IC50 of CCCCc1ccc(-c2ccc3[nH]c(C)c(Br)c(=O)c3c2)cc1 strictly below 0.7 µM?
output: Condition met

input: Is IC50 of CCN(CC)c1cc(C)c2cc(NC(=O)c3cc(=O)c4ccccc4o3)ccc2n1 strictly below 0.7 µM?
output: Condition met

input: Is IC50 of C=CCc1cc(C2CCN(CCCCNC(=O)c3ccc(-c4ccc(C#N)cc4)cc3)CC2)c(OCC(N)=O)c2c1CCCC2 strictly below 0.7 µM?
output: Condition not met

* * *

Test system: P. falciparum 3D7 growth, pLDH absorbance
Test: blood-stage malaria parasite growth potency – strain 3D7, dose response (AID 2305)
Value Kind: log10 IC50 (log10 of the value in nM)
Values below are the log10 of the recorded IC50, with nM as the unit.

Some entries whose results are on file:
| Molecule | Experimental System | log10 IC50 |
| --- | --- | --- |
| CC(=O)NC1=NC(C)(C)N(OCCCOc2ccc(Cl)c(Cl)c2)C(NC(C)=O)=N1 | P. falciparum 3D7 growth, pLDH absorbance | 1.00 |
| CCn1c(-c2nonc2N)nc2cnc(Oc3cccc(NC(=O)c4ccc(OCCN(C(C)C)C(C)C)cc4)c3)cc21 | P. falciparum 3D7 growth, pLDH absorbance | 2.89 |
| Cc1cccc(C)c1NC1=NC(=S)N(c2cccc(Cl)c2)C12CCC(C(C)(C)C)CC2 (configuration not stated) | P. falciparum 3D7 growth, pLDH absorbance | 2.88 |
| Nc1nc(N)c2c(ccc3c2ccn3CCCCO)n1 | P. falciparum 3D7 growth, pLDH absorbance | 2.08 |
| Cc1nc(C(C)Nc2nncc(-c3ccc(Cl)cc3)n2)cs1 (configuration not stated) | P. falciparum 3D7 growth, pLDH absorbance | 3.12 |
| Cc1cc(Oc2ccc(-n3ccnc3)cc2)nc(N2CCN(CCCN3CCCC3)CC2)n1 | P. falciparum 3D7 growth, pLDH absorbance | 2.97 |

Could you report log10 IC50 for every entry in the following list?
1. Oc1cccc(-c2nc(-c3cccc(I)c3)c(-c3ccc(-c4nc(-c5cccc(O)c5)[nH]c4-c4cccc(I)c4)cc3)[nH]2)c1
2. O=C(CCCCCNC(=O)c1ccc(O)c(-c2cccc(C(F)(F)F)c2)c1)NCCN1CCCCC1
3. CC1(C)N=C(N)N=C(N)N1c1cccc(Cl)c1

output:
1: 2.96; 2: 2.95; 3: 1.60
